molecular target: E-coli GGT (Escherichia coli, UniProt P18956); construct: was used as a purified enzyme of E-coli GGT; made in house; test: Second-order rate constant kon of E-coli GGT inactivation (continuous or discontinuous assay); type: biochemical, Escherichia coli K-12; conditions: second-order rate constant for enzyme inactivation; pH 5.5, 25° C.
Sequence (P18956 26-390 limits assumed): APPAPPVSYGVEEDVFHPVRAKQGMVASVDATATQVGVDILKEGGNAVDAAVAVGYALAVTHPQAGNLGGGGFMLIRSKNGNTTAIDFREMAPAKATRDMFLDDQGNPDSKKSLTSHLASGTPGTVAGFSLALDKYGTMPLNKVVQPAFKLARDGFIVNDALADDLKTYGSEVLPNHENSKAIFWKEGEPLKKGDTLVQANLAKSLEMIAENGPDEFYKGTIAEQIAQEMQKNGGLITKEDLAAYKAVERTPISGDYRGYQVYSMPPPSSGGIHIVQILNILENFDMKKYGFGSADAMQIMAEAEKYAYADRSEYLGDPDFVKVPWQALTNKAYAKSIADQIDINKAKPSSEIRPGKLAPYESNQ
Sequence (P18956 391-580 limits assumed): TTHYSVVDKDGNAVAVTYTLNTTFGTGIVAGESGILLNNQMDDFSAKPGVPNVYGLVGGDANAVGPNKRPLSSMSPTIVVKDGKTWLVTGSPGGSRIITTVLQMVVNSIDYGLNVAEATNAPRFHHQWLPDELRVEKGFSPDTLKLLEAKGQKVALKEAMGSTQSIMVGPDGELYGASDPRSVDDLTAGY
TEST READOUT: kon E-coli GGT (M^−1S^−1)
Record the value in M^−1S^−1, omitting the unit from your answer.

Observe how each entry below is paired with its result.
COP(=O)(CCC(N)C(=O)O)Oc1ccc([N+](=O)[O-])cc1 (stereo not drawn): 35000
COP(=O)(CCC(N)C(=O)O)Oc1ccc(CC(=O)O)cc1 (stereo not drawn): 200
COP(=O)(CCC(N)C(=O)O)Oc1ccc(C#N)cc1 (stereo not drawn): 12000
N[C@H](C(=O)O)[C@@H]1CC(Cl)=NO1 [Comparative Example 1, (aS, 5S)-acivicin, reference compound]: 4210
COP(=O)(CCC(N)C(=O)O)Oc1cccc(C(=O)O)c1 (stereo not drawn): 450

[ask] Form field: kon E-coli GGT recorded for COP(=O)(CCC(N)C(=O)O)Oc1cccc(CC(=O)O)c1 (stereo not drawn) with E-coli GGT (Escherichia coli, UniProt P18956) (enter value)
[reply] 150

[ask] Form field: kon E-coli GGT recorded for COc1ccc(OP(=O)(CCC(N)C(=O)O)OC)cc1 (stereo not drawn) with E-coli GGT (Escherichia coli, UniProt P18956) (enter value)
[reply] 19.5
